# assay.system: TcGLIP (MBP-TcGLIP) (Tanacetum cinerariifolium, UniProt H6U1I8)
# Sequence (H6U1I8 28-365): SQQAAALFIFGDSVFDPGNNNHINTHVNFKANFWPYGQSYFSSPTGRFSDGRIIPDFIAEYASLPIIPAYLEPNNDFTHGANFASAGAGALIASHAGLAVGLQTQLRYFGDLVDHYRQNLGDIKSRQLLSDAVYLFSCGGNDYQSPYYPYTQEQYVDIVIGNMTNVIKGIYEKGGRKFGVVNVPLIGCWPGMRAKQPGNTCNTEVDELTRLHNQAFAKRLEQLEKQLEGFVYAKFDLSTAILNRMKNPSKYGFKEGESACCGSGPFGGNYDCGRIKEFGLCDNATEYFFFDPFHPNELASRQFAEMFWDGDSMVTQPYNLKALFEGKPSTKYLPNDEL
pIC50: −log10 of the molar value.
pIC50 below 7 gives criterion not met; pIC50 at or above it gives criterion met.

- smiles.data: "CC/C=C\\CC1=C(C)[C@@H](O[P@@](=O)(CCCCC)Oc2ccc([N+](=O)[O-])cc2)CC1=O"
  class.name: "criterion met"
- smiles.data: "CC/C=C\\CC1=C(C)[C@@H](O[P@](=O)(CCCCCCCC)Oc2ccc([N+](=O)[O-])cc2)CC1=O"
  class.name: "criterion met"
- smiles.data: "C=C/C=C\\CC1=C(C)[C@@H](O[P@@](=O)(CCCCC)Oc2ccc([N+](=O)[O-])cc2)CC1=O"
  class.name: "criterion met"
- smiles.data: "C/C=C\\CC1=C(C)[C@@H](O[P@@](=O)(CCCCC)Oc2ccc([N+](=O)[O-])cc2)CC1=O"
  class.name: "criterion met"
- smiles.data: "C/C=C\\CC1=C(C)[C@@H](O[P@](=O)(CCCCC)Oc2ccc([N+](=O)[O-])cc2)CC1=O"
  class.name: "criterion not met"
- smiles.data: "C=C/C=C\\CC1=C(C)[C@@H](O[P@](=O)(CCCCCCCC)Oc2ccc([N+](=O)[O-])cc2)CC1=O"
  class.name: "criterion met"
- smiles.data: "CC/C=C\\CC1=C(C)[C@@H](O[P@@](=O)(CCCCCCCC)Oc2ccc([N+](=O)[O-])cc2)CC1=O"
  class.name: "criterion not met"
- smiles.data: "C=C/C=C\\CC1=C(C)[C@@H](O[P@](=O)(CCCCC)Oc2ccc([N+](=O)[O-])cc2)CC1=O"
  class.name: "criterion not met"
- smiles.data: "C/C=C\\CC1=C(C)[C@@H](O[P@](=O)(CCCCCCCC)Oc2ccc([N+](=O)[O-])cc2)CC1=O"
  class.name: "criterion met"
- smiles.data: "CC/C=C\\CC1=C(C)[C@@H](O[P@](=O)(CCCCC)Oc2ccc([N+](=O)[O-])cc2)CC1=O"
  class.name: "criterion not met"
